The values you see were collected from patent US7288659B2.

Field: melting point. Provide a value for each of the molecules that follow.
Enter the number, and then the unit.

Lookup: Quick check: melting point of `CC[C@H](NC(=O)Cc1cc(F)cc(F)c1)C(=O)Nc1ncc(-c2ccccc2COC2CCCCC2)s1` ?
Found: 68 °C

Lookup: Quick check: melting point of `CC(C)OCc1ccccc1-c1cnc(NC(=O)[C@H](C)NC(=O)Cc2cc(F)cc(F)c2)s1` ?
Found: 136 °C

Lookup: Quick check: melting point of COCc1ccccc1-c1cnc(NC(=O)C(C)NC(=O)Cc2cc(F)cc(F)c2)s1 (stereo not drawn) ?
Found: 194 °C

Lookup: Quick check: melting point of `C[C@H](NC(=O)Cc1cc(F)cc(F)c1)C(=O)Nc1ncc(-c2ccccc2COC2CCCCC2)s1` ?
Found: 140 °C

Lookup: Quick check: melting point of `C[C@H](NC(=O)Cc1cc(F)cc(F)c1)C(=O)Nc1ncc(-c2ccc(COC3CCCCC3)cc2)s1` ?
Found: 155 °C

Lookup: Quick check: melting point of `CCC[C@H](NC(=O)Cc1cc(F)cc(F)c1)C(=O)Nc1ncc(-c2ccccc2COC2CCCCC2)s1` ?
Found: 134 °C

Lookup: Quick check: melting point of `COc1ccc(CC(=O)N[C@@H](C)C(=O)Nc2ncc(-c3ccccc3COC3CCCCC3)s2)cc1` ?
Found: 74 °C

Lookup: Quick check: melting point of `C[C@H](NC(=O)Cc1cc(F)cc(F)c1)C(=O)Nc1ncc(-c2ccc(COCC3CCCCC3)cc2)s1` ?
Found: 166 °C

Lookup: Quick check: melting point of CCC[C@H](NC(=O)C(F)c1cc(F)cc(F)c1)C(=O)Nc1ncc(-c2ccccc2COC2CCCCC2)s1 (stereo partly drawn) [compound 67] ?
Found: 91 °C

Lookup: Quick check: melting point of CC(NC(=O)Cc1ccccc1)C(=O)Nc1ncc(-c2ccccc2COC2CCCCC2)s1 (stereo not drawn) ?
Found: 162 °C

Lookup: Quick check: melting point of `CCC[C@H](NC(=O)Cc1cc(F)cc(F)c1)C(=O)Nc1ncc(-c2ccc(OC)cc2COC(C)C)s1` ?
Found: 73.9 °C

Lookup: Quick check: melting point of `CCOCc1ccccc1-c1cnc(NC(=O)[C@H](C)NC(=O)Cc2cc(F)cc(F)c2)s1` ?
Found: 173 °C

Lookup: Quick check: melting point of `C[C@H](NC(=O)[C@@H](F)c1cc(F)cc(F)c1)C(=O)Nc1ncc(-c2ccccc2COC2CCCCC2)s1` ?
Found: 158 °C

Lookup: Quick check: melting point of Cc1nc(NC(=O)C(C)NC(=O)Cc2cc(F)cc(F)c2)sc1-c1ccccc1COC1CCCC1 (stereo not drawn) ?
Found: 104 °C

Lookup: Quick check: melting point of `C[C@H](NC(=O)Cc1cc(F)cc(F)c1)C(=O)Nc1ncc(-c2cccc(COC3CCCCC3)c2)s1` ?
Found: 123 °C

---

Field: melting point. Provide a value for each of the molecules that follow.
Numbers only; they are read as °C.

Lookup: Quick check: melting point of `CCC[C@H](NC(=O)C(F)(F)c1cc(F)cc(F)c1)C(=O)Nc1ncc(-c2ccccc2COC2CCCCC2)s1` ?
Found: 68

Lookup: Quick check: melting point of CCC(NC(=O)Cc1cc(F)cc(F)c1)C(=O)Nc1ncc(-c2ccccc2COC2CCCCC2)s1 (stereo not shown) ?
Found: 179

Lookup: Quick check: melting point of `CCC[C@H](NC(=O)[C@H](O)c1cc(F)cc(F)c1)C(=O)Nc1nc(C)c(-c2ccccc2COC2CCCCC2)s1` ?
Found: 99.4

Lookup: Quick check: melting point of `COc1cc(CC(=O)N[C@@H](C)C(=O)Nc2ncc(-c3ccccc3COC3CCCCC3)s2)cc(OC)c1` ?
Found: 73

Lookup: Quick check: melting point of `C[C@H](NC(=O)Cc1ccc(F)cc1)C(=O)Nc1ncc(-c2ccccc2COC2CCCCC2)s1` ?
Found: 70

Lookup: Quick check: melting point of `Cc1nc(NC(=O)[C@H](C)NC(=O)Cc2cc(F)cc(F)c2)sc1-c1ccccc1COC(C)C` ?
Found: 74

Lookup: Quick check: melting point of `C[C@H](NC(=O)C(=O)c1cc(F)cc(F)c1)C(=O)Nc1ncc(-c2ccccc2COC2CCCCC2)s1` ?
Found: 78

---

Field: melting point. Provide a value for each of the molecules that follow.
Enter the number, and then the unit.

Lookup: Quick check: melting point of `C[C@H](NC(=O)Cc1cccc(Cl)c1)C(=O)Nc1ncc(-c2ccccc2COC2CCCCC2)s1` ?
Found: 96 °C

Lookup: Quick check: melting point of `C[C@H](NC(=O)Cc1cc(F)cc(F)c1)C(=O)Nc1ncc(-c2ccccc2CSC2CCCCC2)s1` ?
Found: 91.6 °C

Lookup: Quick check: melting point of `CCC[C@H](NC(=O)[C@H](O)c1cc(F)cc(F)c1)C(=O)Nc1ncc(-c2ccccc2COC2CCCCC2)s1` ?
Found: 112 °C

Lookup: Quick check: melting point of `CCc1nc(NC(=O)[C@H](C)NC(=O)Cc2cc(F)cc(F)c2)sc1-c1ccccc1COC1CCCCC1` ?
Found: 70 °C

Lookup: Quick check: melting point of CCC[C@H](NC(=O)C(C)c1cc(F)cc(F)c1)C(=O)Nc1ncc(-c2ccccc2COC2CCCCC2)s1 (some centres unmarked) ?
Found: 88 °C

Lookup: Quick check: melting point of C[C@H](NC(=O)[C@H](O)c1cc(F)cc(F)c1)C(=O)Nc1ncc(-c2ccccc2COC2CCCCC2)s1 (racemic) ?
Found: 169 °C

Lookup: Quick check: melting point of `CCC[C@H](NC(=O)[C@@H](O)c1cc(F)cc(F)c1)C(=O)Nc1nc(C)c(-c2ccccc2COC2CCCCC2)s1` ?
Found: 115 °C

Lookup: Quick check: melting point of CC(NC(=O)Cc1cc(F)cc(F)c1)C(=O)Nc1ncc(-c2ccccc2COc2ccccc2)s1 (centres unmarked) ?
Found: 114 °C

Lookup: Quick check: melting point of `CC[C@H](NC(=O)Cc1cc(F)cc(F)c1)C(=O)Nc1nc(C)c(-c2ccccc2COC(C)C)s1` ?
Found: 79 °C

Lookup: Quick check: melting point of `CCC[C@H](NC(=O)Cc1cc(F)cc(F)c1)C(=O)Nc1nc(CC)c(-c2ccccc2COC2CCCCC2)s1` ?
Found: 80 °C

Lookup: Quick check: melting point of `CCCC[C@H](NC(=O)Cc1cc(F)cc(F)c1)C(=O)Nc1ncc(-c2ccccc2COC2CCCCC2)s1` ?
Found: 77.6 °C

Lookup: Quick check: melting point of CC(NC(=O)Cc1cc(F)cc(F)c1)C(=O)Nc1ncc(-c2ccccc2COCc2ccccc2)s1 (centres unmarked) ?
Found: 147 °C

Lookup: Quick check: melting point of `Cc1nc(NC(=O)[C@H](C)NC(=O)Cc2cc(F)cc(F)c2)sc1-c1ccccc1COC1CCCC1` ?
Found: 141 °C

Lookup: Quick check: melting point of `CCC[C@H](NC(=O)Cc1cc(F)cc(F)c1)C(=O)Nc1ncc(-c2ccccc2COC(C)C)s1` ?
Found: 74 °C

Lookup: Quick check: melting point of `C[C@H](NC(=O)Cc1ccc(F)c(F)c1)C(=O)Nc1ncc(-c2ccccc2COC2CCCCC2)s1` ?
Found: 136 °C

Lookup: Quick check: melting point of `C[C@@H](NC(=O)Cc1cc(F)cc(F)c1)C(=O)Nc1ncc(-c2ccccc2COC2CCCCC2)s1` ?
Found: 95 °C

Lookup: Quick check: melting point of `CCC[C@H](NC(=O)Cc1cc(F)cc(F)c1)C(=O)Nc1nc(C)c(-c2ccccc2COC(C)C)s1` ?
Found: 66.6 °C

Lookup: Quick check: melting point of CC(NC(=O)Cc1cc(F)cc(F)c1)C(=O)Nc1ncc(-c2ccccc2COCC2CCCCC2)s1 (centres unmarked) ?
Found: 143 °C

Lookup: Quick check: melting point of `C[C@H](NC(=O)Cc1cccc(OC(F)(F)F)c1)C(=O)Nc1ncc(-c2ccccc2COC2CCCCC2)s1` ?
Found: 60 °C

Lookup: Quick check: melting point of Cc1nc(NC(=O)C(C)NC(=O)Cc2cc(F)cc(F)c2)sc1-c1ccccc1COC1CCCCC1 (centres unmarked) ?
Found: 152 °C

Lookup: Quick check: melting point of `O=C(Cc1cc(F)cc(F)c1)NCC(=O)Nc1ncc(-c2ccccc2COC2CCCCC2)s1` ?
Found: 172 °C

Lookup: Quick check: melting point of `C[C@H](NC(=O)Cc1cccc(F)c1)C(=O)Nc1ncc(-c2ccccc2COC2CCCCC2)s1` ?
Found: 98 °C

Lookup: Quick check: melting point of `C[C@H](NC(=O)Cc1cc(F)cc(F)c1)C(=O)Nc1ncc(-c2cccc(COCC3CCCCC3)c2)s1` ?
Found: 144 °C

Lookup: Quick check: melting point of `C[C@H](NC(=O)[C@@H](O)c1cc(F)cc(F)c1)C(=O)Nc1ncc(-c2ccccc2COC2CCCCC2)s1` ?
Found: 159 °C

Lookup: Quick check: melting point of `CCC[C@H](NC(=O)[C@@H](O)c1cc(F)cc(F)c1)C(=O)Nc1ncc(-c2ccccc2COC2CCCCC2)s1` ?
Found: 141 °C

Lookup: Quick check: melting point of `Cc1nc(NC(=O)[C@H](C)NC(=O)Cc2cc(F)cc(F)c2)sc1-c1ccccc1COC1CCCCC1` ?
Found: 85 °C

Lookup: Quick check: melting point of `Cc1ccc(CC(=O)N[C@@H](C)C(=O)Nc2ncc(-c3ccccc3COC3CCCCC3)s2)cc1` ?
Found: 239 °C

Lookup: Quick check: melting point of COC1CCC(OCc2ccccc2-c2cnc(NC(=O)[C@H](C)NC(=O)Cc3cc(F)cc(F)c3)s2)CC1 (some centres unmarked) ?
Found: 149 °C

Lookup: Quick check: melting point of `CC[C@H](NC(=O)Cc1cc(F)cc(F)c1)C(=O)Nc1ncc(-c2ccccc2COC(C)C)s1` ?
Found: 73 °C
